Experiment: Pharmacokinetic parameter (AUC) was determined after administering 1 mg/kg of compound intravenously in rat no.8 belonging to the phenotype EM (extensive metaboliser)
Type: ADME, organism-based
Parameters: dose 1 mg/kg, route intravenous
Details: in vivo, iv
readout_label: AUC (ng·h/mL)
Reply numerically in ng·h/mL, unit not repeated.

Ask: Please give the measured AUC for this compound: COCCOc1cc2c(N3CCN(C(=O)Nc4ccc(C#N)cc4)CC3)ncnc2cc1OC
Reply: 1160

###

Test: Half-life period of intravenously administered compound (1 mg/kg) in rat no.11 belonging to the phenotype […] (poor metaboliser)
Format: ADME, organism-based
Conditions: in vivo, iv, read-out: T1/2 beta (converted)
readout_label: half-life (min)
Reply numerically in min, unit not repeated.

Ask: Please give the measured half-life for this compound: COCCOc1cc2c(N3CCN(C(=O)Nc4ccc(C#N)cc4)CC3)ncnc2cc1OC
Reply: 13.1
